Molecular target: T1, cynomolgus monkey TREM2 Fc fusion (entire TREM2 ECD; only one Fc arm fused to TREM2) (cynomolgus monkey, UniProt Q9NZC2 19-174 (human entry))
T1 construct: also called cyno TREM2-Fc
T1 chain: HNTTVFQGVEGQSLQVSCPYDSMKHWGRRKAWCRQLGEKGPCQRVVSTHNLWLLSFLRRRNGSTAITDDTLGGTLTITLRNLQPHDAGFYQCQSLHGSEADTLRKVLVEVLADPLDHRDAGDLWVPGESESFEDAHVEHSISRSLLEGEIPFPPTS
Experiment: BLI, Fab, monovalent
quantity_measured: Kd (nM)

[
  {
    "binder": "AL2p-39 (antibody, V domains shown, Fab and IgG formats under one id) VH: QVQLVQSGAEVKKPGSSVKVSCKASGYAFSSHWMNWVRQAPGQGLEWMGRIYPGGGDTNYAQKFRGRVTITADESTSTAYMELSSLRSEDTAVYYCARLLRNQPGASYAMDYWGQGTLVTVSS VL: GVVMTQTPLSLSVTPGQPASISCRSSRSLVHSNQYTYLHWYLQKPGQSPQLLIYKVSNRRSGVPDRFSGSGSGTDFTLKISRVEAEDVGVYYCSQSTRVPYTFGQGTKLEIK",
    "observed_measurement": 0.346
  },
  {
    "binder": "AL2p-52 (antibody, V domains shown, Fab and IgG formats under one id) VH: EVQLVQSGAEVKKPGSSVKVSCKASGYAFSSHWMNWVRQAPGQGLEWMGRIYPGEGDTNYAQKFHGRVTITADESTSTAYMELSSLRSEDTAVYYCARLLRNQPGESYAMDYWGQGTLVTVSS VL: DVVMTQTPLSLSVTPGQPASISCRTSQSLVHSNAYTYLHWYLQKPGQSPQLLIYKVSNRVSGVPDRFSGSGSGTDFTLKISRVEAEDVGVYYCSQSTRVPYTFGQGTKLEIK",
    "observed_measurement": 28
  }
]
